Provide the recorded inhibition at 7.5 µg/mL for the entries that follow.
# TARGET OF ASSAY: COX-1 (Ovis aries, UniProt P05979)
# Construct: purchased Cayman 560131
# Sequence (P05979 25-600): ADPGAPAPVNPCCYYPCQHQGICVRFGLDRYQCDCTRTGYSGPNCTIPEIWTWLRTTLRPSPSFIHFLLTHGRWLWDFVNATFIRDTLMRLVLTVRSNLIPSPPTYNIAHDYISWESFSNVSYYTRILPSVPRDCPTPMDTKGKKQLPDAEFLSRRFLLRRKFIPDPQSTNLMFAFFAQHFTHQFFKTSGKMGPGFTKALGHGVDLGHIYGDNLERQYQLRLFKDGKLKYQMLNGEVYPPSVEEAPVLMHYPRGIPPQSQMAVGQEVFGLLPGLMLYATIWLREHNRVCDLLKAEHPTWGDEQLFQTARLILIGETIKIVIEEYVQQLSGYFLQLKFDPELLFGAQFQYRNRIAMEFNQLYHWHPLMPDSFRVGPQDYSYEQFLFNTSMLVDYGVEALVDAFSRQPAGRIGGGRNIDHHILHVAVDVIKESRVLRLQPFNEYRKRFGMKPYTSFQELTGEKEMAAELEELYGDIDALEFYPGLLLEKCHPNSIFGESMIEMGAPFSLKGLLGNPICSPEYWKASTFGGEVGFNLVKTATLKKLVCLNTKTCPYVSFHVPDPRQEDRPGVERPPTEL
# EXPERIMENTAL DETAILS: Cyclooxygenase COX-1 inhibitory assay (Cayman COX inhibitor assay kit)
# Format: biochemical, ovine
# CONDITIONS: 7.5 µg/mL; mean ± SD, n=3; read-out: Percentage inhibition COX1
Numbers only, in %.

// solved cases for inhibition at 7.5 µg/mL follow
1. CC1=CCCC2C1(C)CCC(C)C2(C)CCC(=CC(=O)O)CO (centres unmarked) [Compound 2, 16-hydroxy-cleroda-3,13-dien-15-oic acid]
42.5
2. CC1=CCCC2C1(C)CCC(C)C2(C)CCC(C=O)=CC(=O)O (centres unmarked) [Compound 1]
47.1
3. C=C1C(O)CCC2C1(C)CCC(C)C2(C)CCC1=CC(=O)OC1O (centres unmarked) [Compound 4]
72.3
4. CC1=CCCC2C1(C)CCC(C)C2(C)CCC1=CC(=O)OC1O (centres unmarked) [Compound 5]
86.5

// next item, inhibition at 7.5 µg/mL requested
Data request: Report inhibition at 7.5 µg/mL for C=C1CCCC2C1(C)CCC(C)C2(C)CCC1=CC(=O)OC1O (centres unmarked) [Compound 3] please.
Data returned: 68.3

----------
# TARGET OF ASSAY: 5-LOX (human recombinant) (Homo sapiens)
# Construct: purchased Sigma Aldrich 437996
# Sequence (P09917 1-674): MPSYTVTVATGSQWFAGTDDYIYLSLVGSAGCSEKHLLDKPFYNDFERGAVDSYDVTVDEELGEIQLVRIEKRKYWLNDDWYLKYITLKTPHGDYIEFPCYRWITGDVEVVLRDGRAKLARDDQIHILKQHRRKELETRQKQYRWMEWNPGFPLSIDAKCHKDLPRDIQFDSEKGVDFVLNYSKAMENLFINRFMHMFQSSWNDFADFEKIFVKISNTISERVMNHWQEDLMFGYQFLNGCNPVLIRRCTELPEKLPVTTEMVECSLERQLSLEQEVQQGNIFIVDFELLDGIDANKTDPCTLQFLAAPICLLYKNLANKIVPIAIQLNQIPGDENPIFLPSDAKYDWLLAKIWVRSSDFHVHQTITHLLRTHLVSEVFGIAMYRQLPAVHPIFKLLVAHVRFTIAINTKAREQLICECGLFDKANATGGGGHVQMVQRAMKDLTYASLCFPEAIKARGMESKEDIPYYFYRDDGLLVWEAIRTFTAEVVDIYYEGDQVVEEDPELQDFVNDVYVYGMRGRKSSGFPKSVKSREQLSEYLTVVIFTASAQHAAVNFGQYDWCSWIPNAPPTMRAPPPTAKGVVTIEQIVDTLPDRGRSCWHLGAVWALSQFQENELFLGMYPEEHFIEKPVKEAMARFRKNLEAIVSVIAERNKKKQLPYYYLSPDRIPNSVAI
# EXPERIMENTAL DETAILS: 5-lipoxygenase inhibitory assay (5-LOX assay kit)
# Assay type: biochemical
# CONDITIONS: 10.0 µg/mL; mean ± SD, n=3; read-out: Percentage inhibition 5-LOX
OBSERVATION TYPE: inhibition at 10 µg/mL (%)
Give bare numbers, in %.

1. C=C1C(O)CCC2C1(C)CCC(C)C2(C)CCC1=CC(=O)OC1O (stereo not drawn) [Compound 4]
67.2

Record inhibition at 10 µg/mL for all entries; do not skip any.
1. O=C(O)Cc1ccccc1Nc1c(Cl)cccc1Cl [Diclofenac, reference compound]
2. CC1=CCCC2C1(C)CCC(C)C2(C)CCC(=CC(=O)O)CO (stereo not drawn) [Compound 2, 16-hydroxy-cleroda-3,13-dien-15-oic acid]
3. CC1=CCCC2C1(C)CCC(C)C2(C)CCC1=CC(=O)OC1O (stereo not drawn) [Compound 5]

Data returned:
64.4
51.2
75.8

Record inhibition at 10 µg/mL for all entries; do not skip any.
1. CC1=CCCC2C1(C)CCC(C)C2(C)CCC(C=O)=CC(=O)O (stereo not drawn) [Compound 1]
2. C=C1CCCC2C1(C)CCC(C)C2(C)CCC1=CC(=O)OC1O (stereo not drawn) [Compound 3]

Data returned:
65.4
85

----------
# TARGET OF ASSAY: COX-2 (Homo sapiens)
# Construct: purchased Cayman 560131
# Sequence (P35354 18-604): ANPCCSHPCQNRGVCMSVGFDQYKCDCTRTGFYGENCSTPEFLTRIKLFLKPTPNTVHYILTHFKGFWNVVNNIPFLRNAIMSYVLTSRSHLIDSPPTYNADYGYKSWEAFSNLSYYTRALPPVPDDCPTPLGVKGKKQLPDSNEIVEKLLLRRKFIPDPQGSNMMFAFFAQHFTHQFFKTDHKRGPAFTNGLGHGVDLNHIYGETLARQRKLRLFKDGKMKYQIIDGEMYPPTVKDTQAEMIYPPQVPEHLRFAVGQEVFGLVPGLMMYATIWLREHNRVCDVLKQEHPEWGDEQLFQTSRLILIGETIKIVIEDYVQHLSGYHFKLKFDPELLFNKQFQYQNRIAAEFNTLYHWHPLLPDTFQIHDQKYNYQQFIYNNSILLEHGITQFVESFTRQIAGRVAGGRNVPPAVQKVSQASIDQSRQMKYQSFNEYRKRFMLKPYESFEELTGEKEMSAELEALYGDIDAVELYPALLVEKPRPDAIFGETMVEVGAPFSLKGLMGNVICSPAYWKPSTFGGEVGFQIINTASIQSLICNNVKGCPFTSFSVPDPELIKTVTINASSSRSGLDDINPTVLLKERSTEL
# EXPERIMENTAL DETAILS: Cyclooxygenase COX-2 inhibitory assay (Cayman COX inhibitor assay kit)
# Assay type: biochemical
# CONDITIONS: Fig. 2; mean ± SD, n=3; read-out: IC50 COX-2
Provide the recorded IC50 for the entries that follow.
Give bare numbers, in µM.

// solved cases for IC50 follow
1. CC1=CCCC2C1(C)CCC(C)C2(C)CCC1=CC(=O)OC1O (centres unmarked) [Compound 5]
10.3
2. C=C1CCCC2C1(C)CCC(C)C2(C)CCC1=CC(=O)OC1O (centres unmarked) [Compound 3]
8.49
3. CC1=CCCC2C1(C)CCC(C)C2(C)CCC(C=O)=CC(=O)O (centres unmarked) [Compound 1]
26.4
4. C=C1C(O)CCC2C1(C)CCC(C)C2(C)CCC1=CC(=O)OC1O (centres unmarked) [Compound 4]
12.8

Data request: Param readout = IC50; param system = COX-2 (Homo sapiens); param query = CC1=CCCC2C1(C)CCC(C)C2(C)CCC(=CC(=O)O)CO (centres unmarked) [Compound 2, 16-hydroxy-cleroda-3,13-dien-15-oic acid] ; response: value
Data returned: 12.7

----------
# TARGET OF ASSAY: 5-LOX (human recombinant) (Homo sapiens, UniProt P09917)
# Construct: purchased Sigma Aldrich 437996
# EXPERIMENTAL DETAILS: 5-lipoxygenase inhibitory assay (5-LOX assay kit)
# Assay type: biochemical
# CONDITIONS: 2.5 µg/mL; mean ± SD, n=3; read-out: Percentage inhibition 5-LOX
Response key: satisfied means inhibition at 2.5 µg/mL >= 20%; not satisfied means inhibition at 2.5 µg/mL < 20%.

Examples with answers:
1) CC1=CCCC2C1(C)CCC(C)C2(C)CCC1=CC(=O)OC1O (stereo not drawn)
satisfied
2) C=C1CCCC2C1(C)CCC(C)C2(C)CCC1=CC(=O)OC1O (stereo not drawn)
satisfied
3) C=C1C(O)CCC2C1(C)CCC(C)C2(C)CCC1=CC(=O)OC1O (stereo not drawn)
satisfied
4) CC1=CCCC2C1(C)CCC(C)C2(C)CCC(C=O)=CC(=O)O (stereo not drawn)
not satisfied

Data request: Identify whether the reported inhibition at 2.5 µg/mL of the following compound is 20% or greater: O=C(O)Cc1ccccc1Nc1c(Cl)cccc1Cl [Diclofenac, reference compound]
Data returned: not satisfied

Data request: Also, CC1=CCCC2C1(C)CCC(C)C2(C)CCC(=CC(=O)O)CO (stereo not drawn) [Compound 2, 16-hydroxy-cleroda-3,13-dien-15-oic acid] please.
Data returned: not satisfied

----------
# TARGET OF ASSAY: 5-LOX (human recombinant) (Homo sapiens)
# Construct: purchased Sigma Aldrich 437996
# EXPERIMENTAL DETAILS: 5-lipoxygenase inhibitory assay (5-LOX assay kit)
# Format: biochemical
# CONDITIONS: mean ± SD, n=3; linear regression; read-out: IC50 values 5-LOX (converted)
Hi! Could you tag entries with IC50 below 20 µM as condition met, and those at or above as condition not met? Much appreciated.

1) C=C1CCCC2C1(C)CCC(C)C2(C)CCC1=CC(=O)OC1O (centres unmarked)
condition met
2) C=C1C(O)CCC2C1(C)CCC(C)C2(C)CCC1=CC(=O)OC1O (centres unmarked)
condition met
3) CC1=CCCC2C1(C)CCC(C)C2(C)CCC(C=O)=CC(=O)O (centres unmarked)
condition not met
4) CC1=CCCC2C1(C)CCC(C)C2(C)CCC(=CC(=O)O)CO (centres unmarked) [Compound 2, 16-hydroxy-cleroda-3,13-dien-15-oic acid]
condition not met

Proceed to the following item.
Data request: Quick check: IC50 of CC1=CCCC2C1(C)CCC(C)C2(C)CCC1=CC(=O)OC1O (centres unmarked) under 20 µM?
Data returned: condition met
